Each recorded value in this set is attributed to patent US20250352587A1.

# Test system: Eaviu-1
# protocol: Antibiotic susceptibility test, broth dilution MIC
# Assay type: cell-based, Enterococcus avium
# condition: Enterococcus avium; broth dilution, anaerobic, 37° C., 46-48 h; read-out: MIC against Eaviu-1
endpoint name: MIC

compound="[H]/N=C(/N)N[C@H]1[C@H](O)[C@@H](O)[C@H](O[C@@H]2O[C@@H](C)[C@](O)(C=O)[C@H]2O[C@@H]2O[C@@H](CO)[C@H](O)[C@@H](O)[C@@H]2NC)[C@@H](N/C(N)=N\\[H])[C@@H]1O [Streptomycin]" endpoint_name=MIC measured_value="128 µg/mL"
compound="CCC[C@@H]1C[C@@H](C(=O)N[C@@H]([C@H]2O[C@H](SC)[C@H](O)[C@@H](O)[C@H]2O)[C@H](C)Cl)N(C)C1 [Clindamycin]" endpoint_name=MIC measured_value="4 µg/mL"
compound="CN(C)[C@@H]1C(O)=C(C(N)=O)C(=O)[C@@]2(O)C(O)=C3C(=O)c4c(O)cccc4[C@@](C)(O)[C@H]3C[C@@H]12 [Tetracycline]" endpoint_name=MIC measured_value="0.5 µg/mL"
